Test system: PPARg:RXRa IVT, anti-PPARg (NR concentration 270 nM, RXRa partner concentration 90 nM)
Assay: PBM binding z-score (relative to random genomic background probes); higher = stronger binding; sequences stand for … in GC…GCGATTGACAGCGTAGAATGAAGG
Please mark label 1 if the recorded PBM binding z-score is equal to or greater than 2, and label 0 if it falls below.

sequenceInput: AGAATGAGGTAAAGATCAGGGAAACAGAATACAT
testSystem: PPARg:RXRa IVT, anti-PPARg (NR concentration 270 nM, RXRa partner concentration 90 nM)
assignedClass: label 0
//
sequenceInput: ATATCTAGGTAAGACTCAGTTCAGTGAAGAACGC
testSystem: PPARg:RXRa IVT, anti-PPARg (NR concentration 270 nM, RXRa partner concentration 90 nM)
assignedClass: label 1
//
sequenceInput: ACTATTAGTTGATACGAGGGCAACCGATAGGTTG
testSystem: PPARg:RXRa IVT, anti-PPARg (NR concentration 270 nM, RXRa partner concentration 90 nM)
assignedClass: label 0
//
sequenceInput: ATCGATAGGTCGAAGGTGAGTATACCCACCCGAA
testSystem: PPARg:RXRa IVT, anti-PPARg (NR concentration 270 nM, RXRa partner concentration 90 nM)
assignedClass: label 0
//
sequenceInput: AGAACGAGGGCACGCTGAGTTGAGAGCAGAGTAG
testSystem: PPARg:RXRa IVT, anti-PPARg (NR concentration 270 nM, RXRa partner concentration 90 nM)
assignedClass: label 1

* * *

Tested on: RXRa homodimer (NR concentration 180 nM)
Assay: PBM binding z-score (relative to random genomic background probes); higher = stronger binding; sequences stand for … in GC…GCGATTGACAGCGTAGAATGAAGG
Measured PBM binding z-score by item
measuredParameter: PBM binding z-score

sequenceInput: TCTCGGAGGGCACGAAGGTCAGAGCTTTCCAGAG
measuredParameter: PBM binding z-score
endpointResult: 2.79
//
sequenceInput: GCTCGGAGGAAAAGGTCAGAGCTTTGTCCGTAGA
measuredParameter: PBM binding z-score
endpointResult: 4.74
//
sequenceInput: ATCTCTAGGTAACCAAGTTCCGTGAATGCCGAAC
measuredParameter: PBM binding z-score
endpointResult: 0.217

* * *

System: THRa:RXRa (NR concentration 90 nM, RXRa partner concentration 90 nM)
Test: PBM binding z-score (relative to random genomic background probes); higher = stronger binding; sequences stand for … in GC…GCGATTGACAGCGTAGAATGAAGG
# PBM binding z-score per record follows

sequenceInput: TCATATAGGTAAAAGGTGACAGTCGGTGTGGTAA
testSystem: THRa:RXRa (NR concentration 90 nM, RXRa partner concentration 90 nM)
PBM binding z-score: 1.4
//
sequenceInput: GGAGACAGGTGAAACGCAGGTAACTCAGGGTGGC
testSystem: THRa:RXRa (NR concentration 90 nM, RXRa partner concentration 90 nM)
PBM binding z-score: 1.48
//
sequenceInput: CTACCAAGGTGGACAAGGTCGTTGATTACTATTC
testSystem: THRa:RXRa (NR concentration 90 nM, RXRa partner concentration 90 nM)
PBM binding z-score: 1.81
//
sequenceInput: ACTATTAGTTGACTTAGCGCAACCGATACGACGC
testSystem: THRa:RXRa (NR concentration 90 nM, RXRa partner concentration 90 nM)
PBM binding z-score: -0.258
//
sequenceInput: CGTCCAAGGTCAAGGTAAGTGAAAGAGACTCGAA
testSystem: THRa:RXRa (NR concentration 90 nM, RXRa partner concentration 90 nM)
PBM binding z-score: 3.97
//
sequenceInput: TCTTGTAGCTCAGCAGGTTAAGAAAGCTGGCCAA
testSystem: THRa:RXRa (NR concentration 90 nM, RXRa partner concentration 90 nM)
PBM binding z-score: -0.123
//
sequenceInput: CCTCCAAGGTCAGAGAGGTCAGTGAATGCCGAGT
testSystem: THRa:RXRa (NR concentration 90 nM, RXRa partner concentration 90 nM)
PBM binding z-score: 4.36
//
sequenceInput: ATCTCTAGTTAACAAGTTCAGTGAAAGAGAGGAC
testSystem: THRa:RXRa (NR concentration 90 nM, RXRa partner concentration 90 nM)
PBM binding z-score: 1.12
//
sequenceInput: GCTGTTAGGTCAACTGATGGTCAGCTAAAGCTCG
testSystem: THRa:RXRa (NR concentration 90 nM, RXRa partner concentration 90 nM)
PBM binding z-score: 3.62
//
sequenceInput: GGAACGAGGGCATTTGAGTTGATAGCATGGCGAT
testSystem: THRa:RXRa (NR concentration 90 nM, RXRa partner concentration 90 nM)
PBM binding z-score: 3.57
//
sequenceInput: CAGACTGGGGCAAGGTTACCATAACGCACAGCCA
testSystem: THRa:RXRa (NR concentration 90 nM, RXRa partner concentration 90 nM)
PBM binding z-score: 1.41
//
sequenceInput: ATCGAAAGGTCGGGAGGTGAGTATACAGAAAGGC
testSystem: THRa:RXRa (NR concentration 90 nM, RXRa partner concentration 90 nM)
PBM binding z-score: 2.21
//
sequenceInput: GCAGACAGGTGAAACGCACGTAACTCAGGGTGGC
testSystem: THRa:RXRa (NR concentration 90 nM, RXRa partner concentration 90 nM)
PBM binding z-score: -0.124
//
sequenceInput: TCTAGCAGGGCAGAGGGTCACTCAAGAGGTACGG
testSystem: THRa:RXRa (NR concentration 90 nM, RXRa partner concentration 90 nM)
PBM binding z-score: 1.6
//
sequenceInput: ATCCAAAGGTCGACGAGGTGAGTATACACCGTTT
testSystem: THRa:RXRa (NR concentration 90 nM, RXRa partner concentration 90 nM)
PBM binding z-score: 3.66
//
sequenceInput: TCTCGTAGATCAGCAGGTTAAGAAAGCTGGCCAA
testSystem: THRa:RXRa (NR concentration 90 nM, RXRa partner concentration 90 nM)
PBM binding z-score: 0.0434
//
sequenceInput: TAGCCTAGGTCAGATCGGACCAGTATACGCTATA
testSystem: THRa:RXRa (NR concentration 90 nM, RXRa partner concentration 90 nM)
PBM binding z-score: 2.55
//
sequenceInput: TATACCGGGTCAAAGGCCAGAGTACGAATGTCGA
testSystem: THRa:RXRa (NR concentration 90 nM, RXRa partner concentration 90 nM)
PBM binding z-score: 3.36
//
sequenceInput: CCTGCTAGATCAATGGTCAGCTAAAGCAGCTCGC
testSystem: THRa:RXRa (NR concentration 90 nM, RXRa partner concentration 90 nM)
PBM binding z-score: -0.908
//
sequenceInput: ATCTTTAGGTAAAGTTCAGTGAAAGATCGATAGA
testSystem: THRa:RXRa (NR concentration 90 nM, RXRa partner concentration 90 nM)
PBM binding z-score: 1.52
//
sequenceInput: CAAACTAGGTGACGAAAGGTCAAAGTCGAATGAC
testSystem: THRa:RXRa (NR concentration 90 nM, RXRa partner concentration 90 nM)
PBM binding z-score: 4.22
//
sequenceInput: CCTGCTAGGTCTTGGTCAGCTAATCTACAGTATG
testSystem: THRa:RXRa (NR concentration 90 nM, RXRa partner concentration 90 nM)
PBM binding z-score: -0.178
//
sequenceInput: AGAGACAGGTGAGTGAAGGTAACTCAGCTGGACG
testSystem: THRa:RXRa (NR concentration 90 nM, RXRa partner concentration 90 nM)
PBM binding z-score: 1.75
//
sequenceInput: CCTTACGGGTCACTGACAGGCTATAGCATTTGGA
testSystem: THRa:RXRa (NR concentration 90 nM, RXRa partner concentration 90 nM)
PBM binding z-score: 2.41
//
sequenceInput: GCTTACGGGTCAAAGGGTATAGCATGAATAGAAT
testSystem: THRa:RXRa (NR concentration 90 nM, RXRa partner concentration 90 nM)
PBM binding z-score: 2.8
//
sequenceInput: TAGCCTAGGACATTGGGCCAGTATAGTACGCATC
testSystem: THRa:RXRa (NR concentration 90 nM, RXRa partner concentration 90 nM)
PBM binding z-score: 0.281
//
sequenceInput: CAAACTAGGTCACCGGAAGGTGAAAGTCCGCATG
testSystem: THRa:RXRa (NR concentration 90 nM, RXRa partner concentration 90 nM)
PBM binding z-score: 4.01
//
sequenceInput: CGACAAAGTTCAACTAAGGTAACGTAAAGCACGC
testSystem: THRa:RXRa (NR concentration 90 nM, RXRa partner concentration 90 nM)
PBM binding z-score: 5.06
//
sequenceInput: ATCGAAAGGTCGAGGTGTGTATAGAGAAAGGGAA
testSystem: THRa:RXRa (NR concentration 90 nM, RXRa partner concentration 90 nM)
PBM binding z-score: 2.05
//
sequenceInput: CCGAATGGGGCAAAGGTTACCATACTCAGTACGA
testSystem: THRa:RXRa (NR concentration 90 nM, RXRa partner concentration 90 nM)
PBM binding z-score: 1.86
//
sequenceInput: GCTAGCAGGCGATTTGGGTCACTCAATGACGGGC
testSystem: THRa:RXRa (NR concentration 90 nM, RXRa partner concentration 90 nM)
PBM binding z-score: 1.91
//
sequenceInput: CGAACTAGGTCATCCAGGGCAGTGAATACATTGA
testSystem: THRa:RXRa (NR concentration 90 nM, RXRa partner concentration 90 nM)
PBM binding z-score: 3.78

Origin of the recorded values: the supplement of paper PMC6555819
